- measurementTarget: Janus kinase 3 (JAK3) (Homo sapiens, UniProt P52333)
- Sequence (P52333 whole entry): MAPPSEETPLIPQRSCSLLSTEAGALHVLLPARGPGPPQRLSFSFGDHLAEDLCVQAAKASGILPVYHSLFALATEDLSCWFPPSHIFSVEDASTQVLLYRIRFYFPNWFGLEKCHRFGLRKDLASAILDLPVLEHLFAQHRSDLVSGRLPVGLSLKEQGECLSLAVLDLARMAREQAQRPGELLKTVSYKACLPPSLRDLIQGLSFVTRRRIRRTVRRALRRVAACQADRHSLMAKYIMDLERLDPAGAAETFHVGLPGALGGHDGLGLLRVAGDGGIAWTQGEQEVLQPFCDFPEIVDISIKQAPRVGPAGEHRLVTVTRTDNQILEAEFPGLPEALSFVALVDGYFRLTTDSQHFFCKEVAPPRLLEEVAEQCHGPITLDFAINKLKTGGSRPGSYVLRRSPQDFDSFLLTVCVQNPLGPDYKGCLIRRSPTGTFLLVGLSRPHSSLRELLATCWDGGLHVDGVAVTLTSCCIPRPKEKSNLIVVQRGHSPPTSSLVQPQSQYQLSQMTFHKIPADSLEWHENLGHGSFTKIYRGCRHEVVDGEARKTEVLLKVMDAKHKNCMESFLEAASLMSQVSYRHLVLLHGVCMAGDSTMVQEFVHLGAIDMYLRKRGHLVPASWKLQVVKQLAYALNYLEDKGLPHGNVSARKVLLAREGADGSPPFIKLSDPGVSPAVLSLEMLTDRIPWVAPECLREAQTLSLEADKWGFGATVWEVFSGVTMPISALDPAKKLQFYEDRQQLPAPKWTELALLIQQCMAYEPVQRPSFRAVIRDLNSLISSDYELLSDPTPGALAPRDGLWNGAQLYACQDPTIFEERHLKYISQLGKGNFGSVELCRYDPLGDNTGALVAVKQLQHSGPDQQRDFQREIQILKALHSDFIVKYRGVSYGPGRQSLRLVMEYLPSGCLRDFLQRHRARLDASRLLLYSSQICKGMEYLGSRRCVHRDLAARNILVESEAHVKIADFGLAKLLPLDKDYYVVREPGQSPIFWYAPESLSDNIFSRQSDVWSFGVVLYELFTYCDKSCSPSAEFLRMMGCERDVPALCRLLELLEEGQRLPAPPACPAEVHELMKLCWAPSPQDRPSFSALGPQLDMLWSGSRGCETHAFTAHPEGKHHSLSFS
- assayProcedure: kinase assay
pIC50: −log10 of the molar value.
readout: pIC50

> print(dat)
                             itemsmiles                         measurementtarget  assayresult
1  O=c1cc(-c2ccc(O)cc2)oc2cc(O)cc(O)c12  Janus kinase 3 (JAK3) (Homo sapiens, UniProt P52333)         8.89
